Values were extracted from PubChem BioAssay (NCATS).

Tested on: ECU
Assay: qHTS profiling for inhibitors of Plasmodium falciparum proliferation (AID 504749); further: nearly all actives have a fitted effect of over 60% in size
Conditions: P. falciparum in erythrocytes, SYBR Green DNA, 72 h; series mostly up to 28.7 µM
Inconclusive results are not listed. Calls of active or inactive are those of the source. The call rests on the fitted dose curve; in most records, active means well fitted inhibition curve with a large enough effect; inconclusive means small, poorly fitted or top-dose-only effect; inactive means flat fitted curve, though single readings scatter.
Outcome codes: y = active, n = inactive

{"columns": ["MOLECULE", "CLASS"],
 "data": [
  ["CC(=O)O[C@H]1C[C@H](O[C@H]2[C@@H](O)CC(O[C@H]3[C@@H](O)C[C@H](O[C@H]4CC[C@@]5(C)[C@H](CC[C@@H]6[C@@H]5CC[C@]5(C)[C@@H](C7=CC(=O)OC7)CC[C@]65O)C4)O[C@@H]3C)O[C@@H]2C)O[C@H](C)[C@H]1O[C@@H]1O[C@H](CO)[C@@H](O)[C@H](O)[C@H]1O (stereo partly drawn)", "n"],
  ["CC(C)CCC(=O)OC1CCC2C3CCC4=CC(=O)CC[C@]4(C)C3CC[C@]12C (stereo partly drawn)", "y"],
  ["CCCC(C)C1(CC)C(=O)NC(=S)NC1=O (stereo not drawn)", "n"],
  ["CC1(C)S[C@@H]2[C@H](N)C(=O)N2C1C(=O)O (stereo partly drawn)", "n"],
  ["CCCCCCC(=O)O[C@H]1CC[C@H]2[C@@H]3CCC4CC(=O)C=C(C)[C@]4(C)[C@H]3CC[C@]12C (stereo partly drawn)", "n"],
  ["CCOC(=O)c1cncn1[C@@H](C)c1ccccc1", "n"],
  ["CC12CCC3C4CCC(=O)C(O)=C4CCC3C1CCC2OC(=O)CCC1CCCC1 (stereo not drawn)", "n"],
  ["O=[N+]([O-])OC1CO[C@H]2C(O[N+](=O)[O-])COC12 (stereo partly drawn)", "n"]
]}
